Hey, just so you know, these numbers are from ChEMBL document CHEMBL3407329.

- System: Leishmania donovani
- Method Notes: Antileishmanial activity against Leishmania donovani MHOM/IN/00/DEVI promastigotes assessed as reduction in parasite growth incubated for 72 hrs by MTT assay
- Type: functional, organism-based
Readout Label: IC50

QUERY: # query: IC50 | item O=c1cc(Sc2ccc(Cl)cc2)c2cccc([N+](=O)[O-])c2[nH]1 | system: Leishmania donovani
RESULT: > 10 µM

QUERY: # query: IC50 | item Nc1cc(=O)[nH]c2c([N+](=O)[O-])cccc12 | system: Leishmania donovani
RESULT: > 50 µM

QUERY: # query: IC50 | item O=c1cc(Sc2ccccc2)c2cccc([N+](=O)[O-])c2[nH]1 | system: Leishmania donovani
RESULT: 9.3 µM

QUERY: # query: IC50 | item O=c1cc(Sc2ccccc2C(F)(F)F)c2cccc([N+](=O)[O-])c2[nH]1 | system: Leishmania donovani
RESULT: 3.5 µM

QUERY: # query: IC50 | item COc1cccc(Oc2cc(=O)[nH]c3c([N+](=O)[O-])cccc23)c1 | system: Leishmania donovani
RESULT: > 10 µM

QUERY: # query: IC50 | item Nc1ccccc1Sc1cc(=O)[nH]c2c([N+](=O)[O-])cccc12 | system: Leishmania donovani
RESULT: > 10 µM

QUERY: # query: IC50 | item O=c1cc(Sc2ccccc2F)c2cccc([N+](=O)[O-])c2[nH]1 | system: Leishmania donovani
RESULT: > 10 µM

QUERY: # query: IC50 | item Cc1cc(Oc2cc(=O)[nH]c3c([N+](=O)[O-])cccc23)ccc1Cl | system: Leishmania donovani
RESULT: 6 µM

QUERY: # query: IC50 | item CC(C)(C)OC(=O)NCCOCCOCCNc1cc(=O)[nH]c2c([N+](=O)[O-])cccc12 | system: Leishmania donovani
RESULT: > 50 µM

QUERY: # query: IC50 | item Cc1ccccc1Sc1cc(=O)[nH]c2c([N+](=O)[O-])cccc12 | system: Leishmania donovani
RESULT: > 10 µM

QUERY: # query: IC50 | item Cc1ccc(Sc2cc(=O)[nH]c3c([N+](=O)[O-])cccc23)cc1 | system: Leishmania donovani
RESULT: > 10 µM

QUERY: # query: IC50 | item O=c1cc(Oc2cccc(Cl)c2)c2cccc([N+](=O)[O-])c2[nH]1 | system: Leishmania donovani
RESULT: > 10 µM

QUERY: # query: IC50 | item COc1ccccc1Oc1cc(=O)[nH]c2c([N+](=O)[O-])cccc12 | system: Leishmania donovani
RESULT: > 10 µM

QUERY: # query: IC50 | item COc1ccc(Oc2cc(=O)[nH]c3c([N+](=O)[O-])cccc23)cc1 | system: Leishmania donovani
RESULT: > 10 µM

QUERY: # query: IC50 | item O=c1cc(Oc2ccccc2C(F)(F)F)c2cccc([N+](=O)[O-])c2[nH]1 | system: Leishmania donovani
RESULT: 10 µM

QUERY: # query: IC50 | item COc1ccccc1Sc1cc(=O)[nH]c2c([N+](=O)[O-])cccc12 | system: Leishmania donovani
RESULT: > 10 µM

QUERY: # query: IC50 | item O=c1cc(Sc2ccccc2Cl)c2cccc([N+](=O)[O-])c2[nH]1 | system: Leishmania donovani
RESULT: 3.5 µM

QUERY: # query: IC50 | item NCCOCCOCCNc1cc(=O)[nH]c2c([N+](=O)[O-])cccc12 | system: Leishmania donovani
RESULT: > 50 µM

QUERY: # query: IC50 | item O=c1cc(Oc2ccccc2Br)c2cccc([N+](=O)[O-])c2[nH]1 | system: Leishmania donovani
RESULT: 8.1 µM

QUERY: # query: IC50 | item O=c1cc(Sc2ccc(Br)cc2)c2cccc([N+](=O)[O-])c2[nH]1 | system: Leishmania donovani
RESULT: 4.2 µM

QUERY: # query: IC50 | item O=c1cc(Sc2ccc(C(F)(F)F)cc2)c2cccc([N+](=O)[O-])c2[nH]1 | system: Leishmania donovani
RESULT: 3.8 µM

QUERY: # query: IC50 | item O=c1cc(Sc2cccc(F)c2)c2cccc([N+](=O)[O-])c2[nH]1 | system: Leishmania donovani
RESULT: > 10 µM

QUERY: # query: IC50 | item Cc1ccc(Oc2cc(=O)[nH]c3c([N+](=O)[O-])cccc23)cc1 | system: Leishmania donovani
RESULT: 6 µM

QUERY: # query: IC50 | item O=c1cc(Oc2cccc(F)c2)c2cccc([N+](=O)[O-])c2[nH]1 | system: Leishmania donovani
RESULT: > 10 µM

QUERY: # query: IC50 | item O=c1cc(Oc2ccccc2)c2cccc([N+](=O)[O-])c2[nH]1 | system: Leishmania donovani
RESULT: 14 µM

QUERY: # query: IC50 | item CCCCNc1cc(=O)[nH]c2c([N+](=O)[O-])cccc12 | system: Leishmania donovani
RESULT: 21.4 µM

QUERY: # query: IC50 | item Cc1cccc(Oc2cc(=O)[nH]c3c([N+](=O)[O-])cccc23)c1 | system: Leishmania donovani
RESULT: > 10 µM

QUERY: # query: IC50 | item O=c1cc(Oc2ccc(Cl)cc2)c2cccc([N+](=O)[O-])c2[nH]1 | system: Leishmania donovani
RESULT: 3.7 µM

QUERY: # query: IC50 | item O=c1cc(Oc2cccc(Br)c2)c2cccc([N+](=O)[O-])c2[nH]1 | system: Leishmania donovani
RESULT: > 10 µM

QUERY: # query: IC50 | item O=c1cc(Sc2cccc(Cl)c2)c2cccc([N+](=O)[O-])c2[nH]1 | system: Leishmania donovani
RESULT: > 10 µM

QUERY: # query: IC50 | item O=c1cc(N2CCOCC2)c2cccc([N+](=O)[O-])c2[nH]1 | system: Leishmania donovani
RESULT: 42.1 µM

QUERY: # query: IC50 | item O=c1cc(N2CCNCC2)c2cccc([N+](=O)[O-])c2[nH]1 | system: Leishmania donovani
RESULT: > 50 µM

QUERY: # query: IC50 | item O=c1cc(Oc2ccc(Br)cc2)c2cccc([N+](=O)[O-])c2[nH]1 | system: Leishmania donovani
RESULT: > 5 µM

QUERY: # query: IC50 | item O=c1cc(Oc2ccccc2F)c2cccc([N+](=O)[O-])c2[nH]1 | system: Leishmania donovani
RESULT: > 10 µM

QUERY: # query: IC50 | item O=c1cc(Nc2ccccc2)c2cccc([N+](=O)[O-])c2[nH]1 | system: Leishmania donovani
RESULT: > 50 µM

QUERY: # query: IC50 | item O=c1cc(Oc2cccc(C(F)(F)F)c2)c2cccc([N+](=O)[O-])c2[nH]1 | system: Leishmania donovani
RESULT: > 10 µM

QUERY: # query: IC50 | item O=c1cc(Sc2ccc(Cl)cc2Cl)c2cccc([N+](=O)[O-])c2[nH]1 | system: Leishmania donovani
RESULT: 3.8 µM

QUERY: # query: IC50 | item O=c1cc(Oc2ccccc2Cl)c2cccc([N+](=O)[O-])c2[nH]1 | system: Leishmania donovani
RESULT: > 10 µM

QUERY: # query: IC50 | item COc1cccc(Sc2cc(=O)[nH]c3c([N+](=O)[O-])cccc23)c1 | system: Leishmania donovani
RESULT: > 10 µM

QUERY: # query: IC50 | item O=c1cc(Sc2ccc(F)cc2)c2cccc([N+](=O)[O-])c2[nH]1 | system: Leishmania donovani
RESULT: > 10 µM

QUERY: # query: IC50 | item Cc1ccccc1Oc1cc(=O)[nH]c2c([N+](=O)[O-])cccc12 | system: Leishmania donovani
RESULT: > 10 µM

QUERY: # query: IC50 | item O=c1cc(Sc2cccc(C(F)(F)F)c2)c2cccc([N+](=O)[O-])c2[nH]1 | system: Leishmania donovani
RESULT: > 10 µM

QUERY: # query: IC50 | item COc1ccc(Sc2cc(=O)[nH]c3c([N+](=O)[O-])cccc23)cc1 | system: Leishmania donovani
RESULT: > 10 µM

QUERY: # query: IC50 | item O=c1cc(Oc2ccc(C(F)(F)F)cc2)c2cccc([N+](=O)[O-])c2[nH]1 | system: Leishmania donovani
RESULT: 8.4 µM
